# Assayed System: hGIPR (Homo sapiens, UniProt P48546)
# Sequence (P48546 22-466): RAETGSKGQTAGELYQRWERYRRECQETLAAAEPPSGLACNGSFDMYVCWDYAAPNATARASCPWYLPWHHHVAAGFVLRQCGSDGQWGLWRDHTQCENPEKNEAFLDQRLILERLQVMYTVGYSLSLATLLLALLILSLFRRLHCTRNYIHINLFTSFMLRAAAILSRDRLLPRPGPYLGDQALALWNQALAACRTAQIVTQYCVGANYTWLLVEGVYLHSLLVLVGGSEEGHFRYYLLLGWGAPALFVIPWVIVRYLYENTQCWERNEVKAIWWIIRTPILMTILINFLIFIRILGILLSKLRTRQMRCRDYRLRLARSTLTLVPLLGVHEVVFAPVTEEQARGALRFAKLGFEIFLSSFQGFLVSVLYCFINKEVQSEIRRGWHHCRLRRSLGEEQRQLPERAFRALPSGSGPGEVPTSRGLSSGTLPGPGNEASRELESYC
# Protocol Notes: Functional cAMP activation in the presence of 0.1% casein (no HSA)
# Assay type: cell-based
# Measurement Conditions: read-out: Relative cAMP EC50, hGIPR
Starred links: 1 amine or outer side, 2 acyl side, 3 side chain; linkers in the order of their positions; H or OH if unused. Non-standard residues stand in square brackets, D forms with d. Groups on a side chain read outwards from the residue. No end group written: not given here. *: point of attachment. C18 diacid = O=C(O)CCCCCCCCCCCCCCCCC(=O)*; αMePhe(2-F) = C[C@](N)(Cc1ccccc1F)C(=O)O; γGlu = O=C(O)[C@H](CCC(=O)[*:2])N[*:1]; αMe4Pal = C[C@](N)(Cc1ccncc1)C(=O)O; αMeY = C[C@](N)(Cc1ccc(O)cc1)C(=O)O; 4Pal = N[C@@H](Cc1ccncc1)C(=O)O; αMeL = CC(C)C[C@](C)(N)C(=O)O; αMeS = C[C@](N)(CO)C(=O)O; Orn = NCCC[C@H](N)C(=O)O; AEEA = NCCOCCOCC(=O)O; Aib = CC(C)(N)C(=O)O
Rule: EC50 below 0.02 nM gives T. Equal to or above 0.02 nM gives F.

H-Y[Aib]QGT[αMePhe(2-F)]TSD[4Pal]SI[αMeL]LD[Orn]K([γGlu-γGlu-C18 diacid])AQ[αMe4Pal][Orn]FI[dE]YLIEGGPSSGEPPPEGT-NH2 [Example 541] :: F
H-Y[Aib]QGT[αMePhe(2-F)]TSD[4Pal][αMeS]I[αMeL]LD[Orn]K([AEEA-γGlu-C18 diacid])AA[Aib]EFI[dE][αMeY]LIEGGPSSGAPPPSGTEQ-OH [Example 726] :: T
H-Y[Aib]QGT[αMePhe(2-F)]TSD[4Pal]SI[αMeL]LDKK([γGlu-γGlu-C18 diacid])AQ[Aib]AFIEYLEEGGPSSGAPPPSGTGE-NH2 [Example 622] :: T
H-Y[Aib]QGT[αMePhe(2-F)]TSD[4Pal][αMeS]I[αMeL]LD[Orn]K([γGlu-γGlu-C18 diacid])AQ[Aib][Orn]FI[dE][αMeY]LAEGGPSSGEPPPSGSEE-NH2 [Example 589] :: F
Y[Aib]QGT[αMePhe(2-F)]TSDYSILLDKK([γGlu-γGlu-C18 diacid])AQ[Aib]AFIEYLEEGGPSSGAPPPSGE-NH2 [Example 435] :: F
H-Y[Aib]QGT[αMePhe(2-F)]TSD[4Pal]SILLDKK([γGlu-γGlu-C18 diacid])AQ[Aib]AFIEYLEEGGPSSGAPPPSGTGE-NH2 [Example 510] :: F
H-Y[Aib]QGT[αMePhe(2-F)]TSD[4Pal][αMeS]I[αMeL]LD[Orn]K([γGlu-γGlu-C18 diacid])AQ[αMe4Pal]EFI[dE][αMeY]LIEGGPSSGAPPPSGGGE-NH2 [Example 743] :: T
H-Y[Aib]QGT[αMePhe(2-F)]TSD[4Pal]SILLDKK([γGlu-γGlu-C18 diacid])AQ[Aib]AFIEYLEEGGPSSGEPPPSGTEE-NH2 [Example 608] :: F
H-Y[Aib]QGT[αMePhe(2-F)]TSDYSILLDKK([AEEA-γGlu-C18 diacid])AQ[Aib]AFIEFLEEGGPSSGAPPPSEG-NH2 [Example 412] :: F
H-Y[Aib]QGT[αMePhe(2-F)]TSD[4Pal][αMeS]I[αMeL]LD[Orn]K([γGlu-γGlu-C18 diacid])AQ[αMe4Pal]EFI[dE][αMeY]LIEGGPSSGEPPPSGS-NH2 [Example 715] :: T
H-Y[Aib]QGT[αMePhe(2-F)]TSD[4Pal][αMeS]I[αMeL]LD[Orn]K([AEEA-AEEA-γGlu-C18 diacid])AQ[Aib][Orn]FIEYLIEGGPSSGEPPPSEG-NH2 [Example 491] :: T

---

# Assayed System: hGIPR (Homo sapiens)
# Protocol Notes: Functional cAMP activation in the presence of 0.1% casein (no HSA);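 further: intracellular cAMP rise after 30 min at 37 °C read by HTRF against a standard curve, scaled between buffer alone (0%) and top control ligand concentration (100%), four-parameter fit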
# Type: cell-based
# Measurement Conditions: in the presence of 0.1% casein (no HSA); geometric mean; read-out: Relative cAMP EC50, hGIPR
Starred links: 1 amine or outer side, 2 acyl side, 3 side chain; linkers in the order of their positions; H or OH if unused. Non-standard residues stand in square brackets, D forms with d. Groups on a side chain read outwards from the residue. *: point of attachment. C20 diacid = O=C(O)CCCCCCCCCCCCCCCCCCC(=O)*; C18 diacid = O=C(O)CCCCCCCCCCCCCCCCC(=O)*; γGlu = O=C(O)[C@H](CCC(=O)[*:2])N[*:1]; αMe4Pal = C[C@](N)(Cc1ccncc1)C(=O)O; αMeY = C[C@](N)(Cc1ccc(O)cc1)C(=O)O; αMeF = C[C@](N)(Cc1ccccc1)C(=O)O; 4Pal = N[C@@H](Cc1ccncc1)C(=O)O; αMeL = CC(C)C[C@](C)(N)C(=O)O; αMeS = C[C@](N)(CO)C(=O)O; Orn = NCCC[C@H](N)C(=O)O; AEEA = NCCOCCOCC(=O)O; Aib = CC(C)(N)C(=O)O
Rule: EC50 below 0.07 nM gives yes. Equal to or above 0.07 nM gives no.

H-Y[Aib]QGTFTSDFS[Orn][αMeL]LDKK([AEEA-γGlu-C18 diacid])AQ[Aib]AFIEYLLE[Aib]GPSSGAPPPSGT-NH2 [Example 200] :: no
H-Y[Aib]QGTFTSDFS[Orn][αMeL]LDKK([AEEA-γGlu-C18 diacid])AQ[Aib]AFIEYLLAGGPSSGAPPPSGD-NH2 [Example 85] :: no
H-Y[Aib]QGTFTSDFS[Orn][αMeL]LDKK([AEEA-γGlu-C18 diacid])AQ[Aib]AFIEYLLE[Aib]GPSSGAPPPSGE-NH2 [Example 110] :: no
H-Y[Aib]QGTFTSD[4Pal]SQ[αMeL]LD[Orn]K([AEEA-γGlu-C18 diacid])AQ[αMe4Pal]QFIE[αMeY]LIEGGPSSGAPPPSGSEE-NH2 [Example 1045] :: no
H-Y[Aib]QGTFTSDYSI[αMeL]LDKQAAK([AEEA-AEEA-γGlu-C20 diacid])QFVEWLIAGGPSSGEPPPAEG-NH2 [Example 332] :: no
H-Y[Aib]QGT[αMeF]TSD[4Pal][αMeS]I[αMeL]LD[Orn]K([AEEA-γGlu-C18 diacid])AQ[αMe4Pal]EFI[dE][αMeY]LIEGGPSSGEPPPSGSE-NH2 [Example 1167] :: yes

---

# Assayed System: human GcgR (Homo sapiens)
# Sequence (P47871 26-477): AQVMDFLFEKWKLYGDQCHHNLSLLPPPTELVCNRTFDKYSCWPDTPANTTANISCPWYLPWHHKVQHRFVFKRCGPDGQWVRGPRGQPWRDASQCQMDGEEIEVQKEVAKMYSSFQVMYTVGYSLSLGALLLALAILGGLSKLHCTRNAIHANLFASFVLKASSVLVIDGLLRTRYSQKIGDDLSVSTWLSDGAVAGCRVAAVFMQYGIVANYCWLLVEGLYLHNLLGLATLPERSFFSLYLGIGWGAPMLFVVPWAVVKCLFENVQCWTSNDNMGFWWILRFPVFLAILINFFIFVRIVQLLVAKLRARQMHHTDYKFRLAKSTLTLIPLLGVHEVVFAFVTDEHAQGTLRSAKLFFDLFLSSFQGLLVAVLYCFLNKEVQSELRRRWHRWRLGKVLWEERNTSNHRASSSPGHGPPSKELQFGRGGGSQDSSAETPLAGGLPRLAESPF
# Protocol Notes: Functional cAMP activity in the presence of 1% HSA
# Format: cell-based
# Measurement Conditions: read-out: cAMP Rel EC50, hGcgR
pEC50: −log10 of the molar value. Starred links: 1 amine or outer side, 2 acyl side, 3 side chain; linkers in the order of their positions; H or OH if unused. Non-standard residues stand in square brackets, D forms with d. Groups on a side chain read outwards from the residue. No end group written: not given here. *: point of attachment. C20 diacid = O=C(O)CCCCCCCCCCCCCCCCCCC(=O)*; C18 diacid = O=C(O)CCCCCCCCCCCCCCCCC(=O)*; Phe(4-CN) = N#Cc1ccc(C[C@H](N)C(=O)O)cc1; αMePhe(2-F) = C[C@](N)(Cc1ccccc1F)C(=O)O; γGlu = O=C(O)[C@H](CCC(=O)[*:2])N[*:1]; αMe4Pal = C[C@](N)(Cc1ccncc1)C(=O)O; αMeY = C[C@](N)(Cc1ccc(O)cc1)C(=O)O; 4Pal = N[C@@H](Cc1ccncc1)C(=O)O; αMeL = CC(C)C[C@](C)(N)C(=O)O; αMeS = C[C@](N)(CO)C(=O)O; Orn = NCCC[C@H](N)C(=O)O; AEEA = NCCOCCOCC(=O)O; Aib = CC(C)(N)C(=O)O
Below, each entry is listed alongside its reported pEC50.
Assay Endpoint: pEC50

H-Y[Aib]QGTFTSDFSK[αMeL]LDKK([AEEA-γGlu-C18 diacid])AQ[Aib]AFIEYLIE[Aib]GESSGAPPPSGE-NH2 [Example 217] :: 5.80
H-Y[Aib]QGT[αMePhe(2-F)]TSD[4Pal]SI[αMeL]LD[Orn]K([AEEA-γGlu-C18 diacid])AQ[αMe4Pal][Orn]FIE[αMeY]LIEGGPSSGEPPPEGT-NH2 [Example 505] :: 7.04
H-Y[Aib]QGTFTSDFS[Orn][αMeL]LDKK([AEEA-γGlu-C18 diacid])AQ[Aib]AFIEYLLAGGPSSGEPPPSGE-NH2 [Example 97] :: 5.90
H-Y[Aib]QGT[αMePhe(2-F)]TSD[Phe(4-CN)]SILLDKQAQK([AEEA-AEEA-γGlu-C20 diacid])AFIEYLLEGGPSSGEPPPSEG-NH2 [Example 321] :: 6.08
Y[Aib]QGT[αMePhe(2-F)]TSD[4Pal][αMeS]I[αMeL]LD[Orn]K([Glu-γGlu-C18 diacid])AQ[Aib][Orn]FI[dE][αMeY]LSEGGPSSGEPPPSGTEE-NH2 [Example 564] :: 6.18
H-Y[Aib]QGTFTSDFS[Orn][αMeL]LDKK([AEEA-γGlu-C18 diacid])AQ[Aib]AFIEWLLEGGTSSGAPPPSGS-NH2 [Example 176] :: 6.34

Recorded values, source patent US20240270821A1.
